Source of measurements: patent US11339130B1

Please go through the items and note down their IC50.
Biological target: Human Calpain 1/NS1 (Homo sapiens, UniProt P07384)
Sequence (P07384 whole entry): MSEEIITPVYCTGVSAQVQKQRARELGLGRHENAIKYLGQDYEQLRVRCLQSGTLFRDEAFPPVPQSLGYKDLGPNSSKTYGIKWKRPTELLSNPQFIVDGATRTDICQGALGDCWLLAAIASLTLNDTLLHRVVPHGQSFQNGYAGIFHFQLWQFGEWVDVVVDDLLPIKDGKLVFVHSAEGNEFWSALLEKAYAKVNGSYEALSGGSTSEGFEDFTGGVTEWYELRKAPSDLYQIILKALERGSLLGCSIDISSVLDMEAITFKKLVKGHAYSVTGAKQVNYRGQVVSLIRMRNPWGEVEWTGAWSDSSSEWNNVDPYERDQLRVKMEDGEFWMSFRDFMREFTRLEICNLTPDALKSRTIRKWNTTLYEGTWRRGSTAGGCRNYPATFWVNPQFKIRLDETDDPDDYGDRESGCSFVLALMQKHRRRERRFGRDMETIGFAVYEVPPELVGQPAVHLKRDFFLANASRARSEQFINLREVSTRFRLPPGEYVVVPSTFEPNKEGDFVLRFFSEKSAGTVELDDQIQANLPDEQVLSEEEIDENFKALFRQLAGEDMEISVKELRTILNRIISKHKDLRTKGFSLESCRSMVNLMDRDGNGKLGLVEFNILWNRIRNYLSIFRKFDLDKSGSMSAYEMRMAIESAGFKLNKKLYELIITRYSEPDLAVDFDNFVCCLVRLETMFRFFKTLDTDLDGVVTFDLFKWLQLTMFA
Sequence (P04632 whole entry partner): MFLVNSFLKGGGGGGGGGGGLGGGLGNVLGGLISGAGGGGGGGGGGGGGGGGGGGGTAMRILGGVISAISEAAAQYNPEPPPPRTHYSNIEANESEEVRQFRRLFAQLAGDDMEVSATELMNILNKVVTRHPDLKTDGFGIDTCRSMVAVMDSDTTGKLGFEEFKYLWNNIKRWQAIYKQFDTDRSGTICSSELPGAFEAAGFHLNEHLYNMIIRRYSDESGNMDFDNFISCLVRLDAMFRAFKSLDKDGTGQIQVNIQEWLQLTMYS
Experiment: Calpain inhibition continuous fluorescence (FRET) assay, Human Calpain 1/NS1
Assay type: biochemical
Details: Column A; read-out: Human Calpain 1/NS1 IC50

Which IC50 is reported for this molecule? `Cc1noc(-c2ccccc2)c1C(=O)N[C@@H](Cc1ccccc1)C(=O)C(=O)NC1CC1` < 3 µM

What measured IC50 goes with `O=C(NC1CC1)C(=O)[C@H](Cc1ccccc1)NC(=O)c1sc(C2CC2)nc1-c1ccccc1` ? < 3 µM

Using the record for `Cc1cc(C(=O)N[C@@H](Cc2ccccc2)C(=O)C(N)=O)n(-c2ccc(CNC(=O)CCc3ccccc3)cc2)n1` , report its IC50. < 3 µM

# IC50 lookup, item `Cc1noc(-c2ccccc2)c1C(=O)N[C@@H](Cc1ccccc1)C(=O)C(=O)NCc1ccc(Cl)c(Cl)c1` > 10 µM

Name the recorded IC50 for `Cc1nsc(-c2ccccc2)c1C(=O)N[C@@H](Cc1ccccc1)C(=O)C(=O)NC1CC1` . < 3 µM

Record request: IC50 value, item `Cc1cc(C(=O)N[C@@H](Cc2ccccc2)C(=O)C(N)=O)nn1-c1nc2ccccc2[nH]1` 3 to 10 µM

Report IC50 for `NC(=O)C(=O)[C@H](Cc1ccccc1)NC(=O)c1cncn1-c1ccccn1` please. < 3 µM

What does the record list as IC50 for `O=C[C@H](Cc1ccccc1)NC(=O)c1cncn1-c1ccn(-c2ccccc2)n1` ? < 3 µM

Value lookup for IC50; key = `O=C[C@H](Cc1ccccc1)NC(=O)c1cncn1-c1ccccn1` < 3 µM

Can you share its IC50? I mean this molecule: `O=C[C@H](Cc1ccccc1)NC(=O)c1cncn1-c1n[nH]c2ccccc12` < 3 µM

Which IC50 is listed for `O=C(NC1CC1)C(=O)[C@H](Cc1ccccc1)NC(=O)c1cncn1-c1ncc(-c2ccccc2)s1` ? < 3 µM

Given `CC(=O)NCc1cccc(-n2nc(C)cc2C(=O)N[C@@H](Cc2ccccc2)C(=O)C(N)=O)c1` , state its recorded IC50. < 3 µM

Using the record for `O=C[C@H](Cc1ccccc1)NC(=O)c1cncn1-c1ccccc1` , report its IC50. < 3 µM

Which IC50 is listed for `Cc1nc(-c2ccccc2)c(C(=O)N[C@@H](Cc2ccccc2)C(=O)C(N)=O)s1` ? < 3 µM

For `COc1ccc2nc(-n3nc(C)cc3C(=O)N[C@@H](Cc3ccccc3)C(=O)C(N)=O)sc2c1` , what is its reported IC50? > 10 µM

# get_value(readout='IC50', item= `Cc1cc(C(=O)N[C@@H](Cc2ccccc2)C(=O)C(N)=O)n(-c2cccc(CNC(=O)CCc3ccccc3)c2)n1` ) < 3 µM
